Source listed as paper PMC9583845.

- Assayed System: chicken MC5R + MRAP1 (Gallus gallus, UniProt O73671)
- Method: pGL3-CRE-luciferase reporter assay, CHO cells co-expressing MC5R and cMRAP1
- Assay type: cell-based
- Assay Context: Table 1 / Figure 3, co-expressed with cMRAP1, 6 h, pGL3-CRE-luciferase, mean ± SEM of at least three independent experiments (figure: four replicates)
Assay Readout: pEC50
Quick note: pEC50 means taking -log10 of the concentration in moles per liter.

Sample H-SYSMEHFRWGKPVGRKRRPIKVYPNGVDEESAESYPMEF-OH [ACTH1-39] — what was its pEC50?
8.67

---

- Assayed System: chicken MC5R (Gallus gallus, UniProt O73671)
- Sequence (O73671 1-325): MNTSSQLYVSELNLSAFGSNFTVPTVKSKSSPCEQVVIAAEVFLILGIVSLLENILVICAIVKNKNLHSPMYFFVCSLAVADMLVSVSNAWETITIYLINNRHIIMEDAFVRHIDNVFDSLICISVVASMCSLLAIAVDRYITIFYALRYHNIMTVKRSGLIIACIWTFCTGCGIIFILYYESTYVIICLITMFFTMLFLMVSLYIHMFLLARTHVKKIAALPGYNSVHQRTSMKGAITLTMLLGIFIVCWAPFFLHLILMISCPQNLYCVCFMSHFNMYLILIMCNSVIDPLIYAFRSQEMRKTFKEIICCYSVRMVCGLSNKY
- Method: pGL3-CRE-luciferase reporter assay, CHO cells expressing chicken MC5R
- Format: cell-based
- Assay Context: Table 1 / Figure 3, CHO cells, MC5R alone, 6 h, mean ± SEM of at least three independent experiments (figure: four replicates), read-out: EC50, MC5R expressed alone
Assay Readout: pEC50
Quick note: pEC50 means taking -log10 of the concentration in moles per liter.

Item under review: H-SYSMEHFRWGKPVGRKRRPIKVYPNGVDEESAESYPMEF-OH [ACTH1-39] . Reported pEC50?
8.23
